- Tested on: IL-17A expression
- METHOD DESCRIPTION: IL-17A inhibition assay in IL-17 luciferase-(LUCPorter) stable reporter cell line
- RECORDED CONDITIONS: 10 μg/ml, 6 hours
Mark class 1 for reported Inhibition of IL-17A expression (%) Experiment-3 of 20% or greater; mark class 0 for anything smaller.

| COMPOUND | LABEL CLASS |
| --- | --- |
| CO[C@]1(C)CC[C@@]23C[C@@H]1C(C)(C)[C@@H]2CC[C@H]3C [methyl cedryl ether, Methyl cedryl ether] | class 0 |
| CC(=O)C1=C(C)[C@@H]2C[C@@]3(C1)[C@H](C)CC[C@H]3C2(C)C [methyl cedryl ketone, Methyl cedryl ketone] | class 0 |
| C[C@@H]1CC[C@H]2C(C)(C)[C@H]3C[C@@]12CC1OC13C (stereo partly drawn) [cedrene epoxide, Cedrene epoxide] | class 0 |
| C[C@@H]1CC[C@H]2C(C)(C)[C@H]3C[C@@]12CC[C@@]3(C)O [cedrol, Cedrol] | class 1 |
| CC(=O)O[C@]1(C)CC[C@@]23C[C@@H]1C(C)(C)[C@@H]2CC[C@H]3C [cedryl acetate, Cedryl acetate] | class 1 |
| CC1=CC[C@@]23C[C@@H]1C(C)(C)[C@@H]2CC[C@H]3C [alpha-cedrene, Alpha-cedrene] | class 1 |

----------
Overview of reported IC50 across a group of compounds:
- Tested on: IL-17A expression
- METHOD DESCRIPTION: IL-17A inhibition assay in IL-17 luciferase-(LUCPorter) stable reporter cell line
- RECORDED CONDITIONS: Homo sapiens, read-out: IC50 to inhibit the IL-17A expression by 50%
MEASUREMENT TYPE: IC50 (µg/mL)

| COMPOUND | MEASUREMENT TYPE | NUMBER |
| --- | --- | --- |
| CO[C@]1(C)CC[C@@]23C[C@@H]1C(C)(C)[C@@H]2CC[C@H]3C | IC50 | 1130 |
| CC1=CC[C@@]23C[C@@H]1C(C)(C)[C@@H]2CC[C@H]3C | IC50 | 1510 |
| C[C@@H]1CC[C@H]2C(C)(C)[C@H]3C[C@@]12CC1OC13C (stereo partly drawn) [cedrene epoxide, Cedrene epoxide] | IC50 | 942 |
| C[C@@H]1CC[C@H]2C(C)(C)[C@H]3C[C@@]12CC[C@@]3(C)O | IC50 | 726 |
| CC(=O)C1=C(C)[C@@H]2C[C@@]3(C1)[C@H](C)CC[C@H]3C2(C)C | IC50 | 841 |
| CC(=O)O[C@]1(C)CC[C@@]23C[C@@H]1C(C)(C)[C@@H]2CC[C@H]3C [cedryl acetate, Cedryl acetate] | IC50 | 608 |

----------
Below, each of the molecules is paired with its reported Inhibition of IL-17A expression (%) Experiment-1 value.
- Test system: IL-17A expression
- METHOD DESCRIPTION: IL-17A inhibition assay in IL-17 luciferase-(LUCPorter) stable reporter cell line
- RECORDED CONDITIONS: 100 μg/ml, 6 hours
MEASUREMENT TYPE: Inhibition of IL-17A expression (%) Experiment-1

| MOLECULE | RESULT |
| --- | --- |
| C[C@@H]1CC[C@H]2C(C)(C)[C@H]3C[C@@]12CC1OC13C (some centres unmarked) [cedrene epoxide, Cedrene epoxide] | 14% |
| CC(=O)C1=C(C)[C@@H]2C[C@@]3(C1)[C@H](C)CC[C@H]3C2(C)C | 12% |
| C[C@@H]1CC[C@H]2C(C)(C)[C@H]3C[C@@]12CC[C@@]3(C)O | 21% |
| CO[C@]1(C)CC[C@@]23C[C@@H]1C(C)(C)[C@@H]2CC[C@H]3C | −5% |
| CC1=CC[C@@]23C[C@@H]1C(C)(C)[C@@H]2CC[C@H]3C | 21% |

----------
# Lookup of reported expression of IL-17A, % by the control keyed by entry
- System: IL-17A expression
- METHOD DESCRIPTION: IL-17A inhibition assay in IL-17 luciferase-(LUCPorter) stable reporter cell line
- RECORDED CONDITIONS: 1,000 μg/ml
MEASUREMENT TYPE: expression of IL-17A, % by the control

| COMPOUND | RESULT |
| --- | --- |
| CO[C@]1(C)CC[C@@]23C[C@@H]1C(C)(C)[C@@H]2CC[C@H]3C [methyl cedryl ether, Methyl cedryl ether] | 74 % by the control |
| CC(=O)C1=C(C)[C@@H]2C[C@@]3(C1)[C@H](C)CC[C@H]3C2(C)C [methyl cedryl ketone, Methyl cedryl ketone] | 34 % by the control |
| CC(=O)O[C@]1(C)CC[C@@]23C[C@@H]1C(C)(C)[C@@H]2CC[C@H]3C [cedryl acetate, Cedryl acetate] | 10 % by the control |
| CC1=CC[C@@]23C[C@@H]1C(C)(C)[C@@H]2CC[C@H]3C [alpha-cedrene, Alpha-cedrene] | 65 % by the control |
| C[C@@H]1CC[C@H]2C(C)(C)[C@H]3C[C@@]12CC[C@@]3(C)O [cedrol, Cedrol] | 28 % by the control |
| C[C@@H]1CC[C@H]2C(C)(C)[C@H]3C[C@@]12CC1OC13C (stereo partly drawn) [cedrene epoxide, Cedrene epoxide] | 54 % by the control |

----------
- System: IL-17A expression
- METHOD DESCRIPTION: IL-17A inhibition assay in IL-17 luciferase-(LUCPorter) stable reporter cell line
- RECORDED CONDITIONS: 1000 μg/ml, 6 hours
MEASUREMENT TYPE: Inhibition of IL-17A expression (%) Experiment-1

| MOLECULE | NUMBER |
| --- | --- |
| C[C@@H]1CC[C@H]2C(C)(C)[C@H]3C[C@@]12CC1OC13C (some centres unmarked) [cedrene epoxide, Cedrene epoxide] | 60 |
| CO[C@]1(C)CC[C@@]23C[C@@H]1C(C)(C)[C@@H]2CC[C@H]3C | 48 |
| CC1=CC[C@@]23C[C@@H]1C(C)(C)[C@@H]2CC[C@H]3C | 36 |
| C[C@@H]1CC[C@H]2C(C)(C)[C@H]3C[C@@]12CC[C@@]3(C)O | 76 |
| CC(=O)C1=C(C)[C@@H]2C[C@@]3(C1)[C@H](C)CC[C@H]3C2(C)C | 78 |

----------
- Tested on: IL-17A expression
- METHOD DESCRIPTION: IL-17A inhibition assay in IL-17 luciferase-(LUCPorter) stable reporter cell line
- RECORDED CONDITIONS: Homo sapiens, read-out: Average Inhibition (%)
Decision: inhibition at 100 µg/mL >= 20% yields MET, all other cases yield NOT MET.

| MOLECULE | LABEL CLASS |
| --- | --- |
| CO[C@]1(C)CC[C@@]23C[C@@H]1C(C)(C)[C@@H]2CC[C@H]3C | NOT MET |
| CC(=O)C1=C(C)[C@@H]2C[C@@]3(C1)[C@H](C)CC[C@H]3C2(C)C | NOT MET |
| CC(=O)O[C@]1(C)CC[C@@]23C[C@@H]1C(C)(C)[C@@H]2CC[C@H]3C [cedryl acetate, Cedryl acetate] | MET |
| C[C@@H]1CC[C@H]2C(C)(C)[C@H]3C[C@@]12CC[C@@]3(C)O | MET |
| C[C@@H]1CC[C@H]2C(C)(C)[C@H]3C[C@@]12CC1OC13C (stereo partly drawn) [cedrene epoxide, Cedrene epoxide] | NOT MET |
| CC1=CC[C@@]23C[C@@H]1C(C)(C)[C@@H]2CC[C@H]3C | MET |

----------
- Tested on: IL-17A expression
- METHOD DESCRIPTION: IL-17A inhibition assay in IL-17 luciferase-(LUCPorter) stable reporter cell line
- RECORDED CONDITIONS: 10 μg/ml; control group 2,582 units
expression of IL-17A (luciferase units) for assorted compounds
MEASUREMENT TYPE: expression of IL-17A (luciferase units)

| COMPOUND | ASSAYED SYSTEM | RESULT |
| --- | --- | --- |
| CC1=CC[C@@]23C[C@@H]1C(C)(C)[C@@H]2CC[C@H]3C | IL-17A expression | 2,042±114 units |
| CC(=O)C1=C(C)[C@@H]2C[C@@]3(C1)[C@H](C)CC[C@H]3C2(C)C | IL-17A expression | 2,248±194 units |
| C[C@@H]1CC[C@H]2C(C)(C)[C@H]3C[C@@]12CC[C@@]3(C)O | IL-17A expression | 1,718±174 units |
| C[C@@H]1CC[C@H]2C(C)(C)[C@H]3C[C@@]12CC1OC13C (stereo partly drawn) [cedrene epoxide, Cedrene epoxide] | IL-17A expression | 2,591±458 units |
| CO[C@]1(C)CC[C@@]23C[C@@H]1C(C)(C)[C@@H]2CC[C@H]3C | IL-17A expression | 2,479±136 units |
| CC(=O)O[C@]1(C)CC[C@@]23C[C@@H]1C(C)(C)[C@@H]2CC[C@H]3C [cedryl acetate, Cedryl acetate] | IL-17A expression | 1,994±304 units |
